# test-target: RNase A (Bos taurus, UniProt P61823)
# Sequence (P61823 27-150): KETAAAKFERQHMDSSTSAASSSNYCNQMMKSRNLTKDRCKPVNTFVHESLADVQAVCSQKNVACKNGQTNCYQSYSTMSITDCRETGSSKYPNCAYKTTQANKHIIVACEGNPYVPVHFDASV
# method: RNA cleavage assay with total RNA from HeLa cells, agarose gel imaging
# Type: biochemical, bovine
# Set-up: Ribonuclease A (Type II-A) from bovine pancreas; purchased Sigma-Aldrich Korea; host or cells: bovine pancreas
# measurement-parameters: RNase 0.7 μg/ml, agarose gel image analysis, read-out: IC50 for RNase A activity inhibition
# Protocol: The analysis of RNase inhibitory activity of Fv antibodies and synthetic peptides was performed using RNA samples extracted from HeLa cells as follows: (1) Mixing the RNA sample extracted from HeLa cells (600 ng) with 87.5 nM-5.6 μM under conditions of 37° C. for 30 minutes, (2) Electrophoresis on a 1% agarose gel at 90 V for 40 minutes. The estimation of RNase inhibitory activity was carried out by gel imaging of the cleaved RNA using a ChemiDoc XPS (Bio-Rad, CA, USA). […]
Where no end group is shown, it is not given here.
Collected IC50 values appear next to each entry.

- query-sequence: "CGPDSDVMTDF [Peptide-1]"
  value-units: "nM"
  IC50: 995
- query-sequence: "DGTAKKSRKDD [Peptide-3]"
  value-units: "nM"
  IC50: 464
- query-sequence: "YGPVGRVKRDD [Peptide-2]"
  value-units: "nM"
  IC50: 658

The measurements presented in this section are drawn from patent US20260217863A1.
